target: T1, HLA-DRB5 (DRB5*0101), purified (human); assay: competition on purified HLA-DR (DRB5*0101) against biotinylated HA 306-318 (5 nM, pH 5.5); fluorescence assay
T1 construct: mature
measurement-type: IC50 (nM)
# value in nM; strip the unit string

Data request: GET /values?readout=IC50&item= ACYEFLWGPRALVETS [peptide MAGE-3 267-282 (ACYEFLWGPRALVETS)]
Data returned: 170
